Exercise: state measured TGI for each of the compounds provided.
system: OVCAR-4 ovarian; assay: NCI tumour cell line growth inhibition, 48 h

Answer with the recorded TGI of Cc1cccc(C)c1NC(=O)C(C#N)C1=C(Cl)C(=O)c2ccccc2C1=O (stereo unspecified) only.
30.3 µM

Answer with the recorded TGI of `COc1ccc2n[se]nc2c1` only.
> 100 µM

Answer with the recorded TGI of `CNC1=C(C)C(=O)C(=O)C([C@H](C)CCC=C(C)C)=C1O` only.
> 77 µM

Answer with the recorded TGI of `O=C1Nc2ccccc2/C1=C/C(=O)c1coc2c1C(=O)c1ccccc1C2=O` only.
> 100 µM

Answer with the recorded TGI of CC(=O)OCC1=C(CCC#N)N2C(=O)C(NC(=O)Cc3cccs3)C2S(=O)C1 (stereo unspecified) only.
> 100 µM

Answer with the recorded TGI of Cc1csc2c(=O)n(C3OC(CO)C(O)C3O)c(=O)[nH]c12 (stereo unspecified) only.
> 100 µM

Answer with the recorded TGI of `C[C@]12CCC(=O)C=C1CC[C@@H]1[C@@H]2CC[C@]2(C)C(=O)NC(=O)C[C@@H]12` only.
> 100 µM

Answer with the recorded TGI of CC(C)Cn1cnc2c(NCC(C)O)nc3ccccc3c21 (stereo unspecified) only.
> 100 µM

Answer with the recorded TGI of COC(=O)C(=O)C(C(=O)C(=O)Nc1ccc(F)cc1)c1nc2ccc([N+](=O)[O-])cc2[nH]c1=O (stereo unspecified) only.
> 100 µM

Answer with the recorded TGI of `CCCCNc1nc(C#N)c(N)s1` only.
> 100 µM

Answer with the recorded TGI of `N#Cc1c(N)nc(-c2ccc(Cl)cc2)c2c1-c1ccccc1S(=O)(=O)CC2` only.
> 100 µM

Answer with the recorded TGI of `COc1c(C)c2c(c(O)c1C/C=C(\C)CCC(=O)O)C(=O)OC2` only.
> 100 µM

Answer with the recorded TGI of `Cc1c(C(N)=O)sc2c1C(=O)N(Cc1ccccc1)C1=NN=C(c3ccc(Cl)cc3)CN12` only.
15.8 µM

Answer with the recorded TGI of `CCN(CC)c1c(C(=O)/C=C/c2ccc(OC)cc2)c(-c2ccccc2)nn(C)c1=O` only.
58 µM

Answer with the recorded TGI of `Cc1ccc(S(=O)(=O)n2cc(-c3cc(C(F)(F)F)ccn3)c3cc(Br)ccc32)cc1` only.
29.7 µM

Answer with the recorded TGI of CC1CCC(NC(=O)N(CCCl)N=O)CC1 (stereo unspecified) only.
61.1 µM

Answer with the recorded TGI of `Oc1ccccc1/C=C/c1csnn1` only.
> 100 µM

Answer with the recorded TGI of CC(=O)NC1C(OCc2ccccc2)OC(CO)C(O)C1OC(C)C(=O)NC(C(=O)N[C@@H](CCC(=O)NCCNCCNc1c2ccccc2nc2cccc([N+](=O)[O-])c12)C(N)=O)C(C)C (stereo partly specified) only.
> 100 µM

Answer with the recorded TGI of `C=CCN1C(=O)/C(=C/c2ccc(OC)cc2)N=C1SC/C=C/C` only.
> 100 µM

Answer with the recorded TGI of `O=C1/C(=C/c2cccc(F)c2)CCCc2ccccc21` only.
31.8 µM

Answer with the recorded TGI of O=C1c2ccccc2C(O)(O)C1(O)C1(O)C(=O)c2ccccc2C1(O)O (stereo unspecified) only.
> 100 µM

These measurements were taken from PubChem BioAssay (NCI).
